Molecular target: cap-dependent translation in rabbit reticulocyte lysate (RRL)
Test: Inhibition of cap-dependent translation of ARCA-capped luciferase mRNA in rabbit reticulocyte lysate (RRL)
Assay type: biochemical
Conditions: ARCA-capped luciferase mRNA, 1% DMSO final concentration, read-out: IC50^DMSO ± SE
As shown below, each of these molecules has a reported IC50 value.
# value in µM; strip the unit string

Reference set (2 entries):
Cn1c[n+]([C@@H]2O[C@H](COP(=O)(O)O)[C@@H](O)[C@H]2O)c2nc(N)[nH]c(=O)c21 [m^7GMP] ... 19.2
COc1cccc(OC)c1OCCCn1cc(CNc2nc3c(c(=O)[nH]2)[n+](C)cn3[C@@H]2O[C@H](COP(=O)([O-])O)[C@@H](O)[C@H]2O)nn1 [compound 2, (4-(diOCH3-bn)-tz-CH2)2m^7GMP] ... 1.8

Q: What value of IC50 has been recorded for this entry: COc1cccc(OC)c1OCCCn1cc(CNc2nc3c(c(=O)[nH]2)[n+](Cc2ccccc2)cn3[C@@H]2O[C@H](COP(=O)(O)OP(=O)([O-])OP(=O)(O)OC[C@H]3O[C@@H](n4cnc5c(=O)[nH]c(N)nc54)[C@H](O)[C@@H]3O)[C@@H](O)[C@H]2O)nn1 [compound 4]
A: 0.24

FYI, the data here is from paper PMC11123931.
